target: G3BP1 NTF2-like domain (1-139) S38G (human, UniProt Q13283 1-139, S38G); test: fluorescence polarisation
Sequence (Q13283 1-139 S38G): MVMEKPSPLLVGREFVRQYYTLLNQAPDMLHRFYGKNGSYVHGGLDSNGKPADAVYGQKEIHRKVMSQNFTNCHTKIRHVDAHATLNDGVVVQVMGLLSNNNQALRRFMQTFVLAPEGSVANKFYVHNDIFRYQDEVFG
Where no end group is shown, it is not given here. Ahx = NCCCCCC(=O)O

- BINDER: "{fluorescein-Ahx}-YNFIQDSMLDFE [Caprin1-derived dodecamer reporter peptide F*-YNFIQDSMLDFE]"
  READOUT_UNITS: "µM"
  Kd: 10.5
